Hello, the source for this data is FireProtDB (doi:10.1016/0022-2836(92)90564-z), in case you need it.

Quick list: ddG of mutation (higher = less stable) per entry.
B1: Ribonuclease, P00648 (parent)
chain: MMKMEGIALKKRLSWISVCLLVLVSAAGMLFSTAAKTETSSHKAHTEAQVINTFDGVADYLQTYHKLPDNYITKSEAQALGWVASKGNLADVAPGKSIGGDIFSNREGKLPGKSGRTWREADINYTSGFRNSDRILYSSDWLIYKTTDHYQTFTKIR

variants of: B1; settings: Bacillus amyloliquefaciens; pH 6.3; 25 °C; Urea; Fluorescence; MES 1.00 M; NaCl 613 mM; reversible: yes; structure 1BNI; whole UniProt chain shown
Give the number; kcal/mol is assumed, so skip it.

# example entries with known answers
mutation_key=N105A recorded_endpoint="ddG of mutation (higher = less stable)" endpoint_value=2.17
mutation_key=I72V recorded_endpoint="ddG of mutation (higher = less stable)" endpoint_value=1.18
mutation_key=D101N recorded_endpoint="ddG of mutation (higher = less stable)" endpoint_value=2.42

Ask: State the recorded ddG of mutation (higher = less stable) for this entry: N124A
Reply: 1.88

Ask: Entry I143A has what ddG of mutation (higher = less stable)?
Reply: 2.37

Ask: Which ddG of mutation (higher = less stable) value belongs to S138A ?
Reply: 1.93

Ask: # ddG of mutation (higher = less stable) lookup, item V57A
Reply: 3.63

Ask: Suppose we examine the variant V57T ; what ddG of mutation (higher = less stable) value has been reported?
Reply: 2.58
